Test system: periplasmic domain of RseA
Experiment: Cleavage of 35S-labeled RseA periplasmic domain by DegS variants
Type: biochemical, E. coli
Conditions: H198P background; with YYF; % of H198P parent
REPORTED PROPERTY: YYF-stimulated cleavage activity relative to H198P parental enzyme

*Q* Need YYF-stimulated cleavage activity relative to H198P parental enzyme of Q187A/H198P (protein, UniProt P0AEE3 1-355, looked up, variant Q187A H198P) Serine endoprotease DegS: MFVKLLRSVAIGLIVGAILLVAMPSLRSLNPLSTPQFDSTDETPASYNLAVRRAAPAVVNVYNRGLNTNSHNQLEIRTLGSGVIMDQRGYIITNKHVINDADQIIVALQDGRVFEALLVGSDSLTDLAVLKINATGGLPTIPINARRVPHIGDVVLAIGNPYNLGQTITQGIISATGRIGLNPTGRANFLQTDASINPGNSGGALVNSLGELMGINTLSFDKSNDGETPEGIGFAIPFQLATKIMDKLIRDGRVIRGYIGIGGREIAPLHAQGGGIDQLQGIVVNEVSPDGPAANAGIQVNDLIISVDNKPAISALETMDQVAEIRPGSVIPVVVMRDDKQLTLQVTIQEYPATN , thanks.
*A* ≥ 65%

*Q* Need YYF-stimulated cleavage activity relative to H198P parental enzyme of D221A/H198P (protein, UniProt P0AEE3 1-355, looked up, variant D221A H198P) Serine endoprotease DegS: MFVKLLRSVAIGLIVGAILLVAMPSLRSLNPLSTPQFDSTDETPASYNLAVRRAAPAVVNVYNRGLNTNSHNQLEIRTLGSGVIMDQRGYIITNKHVINDADQIIVALQDGRVFEALLVGSDSLTDLAVLKINATGGLPTIPINARRVPHIGDVVLAIGNPYNLGQTITQGIISATGRIGLNPTGRQNFLQTDASINPGNSGGALVNSLGELMGINTLSFAKSNDGETPEGIGFAIPFQLATKIMDKLIRDGRVIRGYIGIGGREIAPLHAQGGGIDQLQGIVVNEVSPDGPAANAGIQVNDLIISVDNKPAISALETMDQVAEIRPGSVIPVVVMRDDKQLTLQVTIQEYPATN , thanks.
*A* ≥ 65%

*Q* Need YYF-stimulated cleavage activity relative to H198P parental enzyme of I179A/H198P (protein, UniProt P0AEE3 1-355, looked up, variant I179A H198P) Serine endoprotease DegS: MFVKLLRSVAIGLIVGAILLVAMPSLRSLNPLSTPQFDSTDETPASYNLAVRRAAPAVVNVYNRGLNTNSHNQLEIRTLGSGVIMDQRGYIITNKHVINDADQIIVALQDGRVFEALLVGSDSLTDLAVLKINATGGLPTIPINARRVPHIGDVVLAIGNPYNLGQTITQGIISATGRAGLNPTGRQNFLQTDASINPGNSGGALVNSLGELMGINTLSFDKSNDGETPEGIGFAIPFQLATKIMDKLIRDGRVIRGYIGIGGREIAPLHAQGGGIDQLQGIVVNEVSPDGPAANAGIQVNDLIISVDNKPAISALETMDQVAEIRPGSVIPVVVMRDDKQLTLQVTIQEYPATN , thanks.
*A* ≥ 65%
